Experiment: Plasma pharmacokinetics in mice (LC/MS/MS)
Assay type: in vivo, Female BALB/c mice
Conditions: female, BALB/c, mouse, ip; mice, 20 mg kg^−1 i.p., plasma
recorded.metric: half-life (min)

molecule: O=c1cc(N2CCOCC2)oc2c1ccc1ccccc12 [NU7026, 2-(morpholin-4-yl)-benzo[H]chromen-4-one]
numeric.result: 52.2

###

Experiment: Plasma pharmacokinetics in mice (LC/MS/MS)
Format: in vivo, Female BALB/c mice
Conditions: female, BALB/c, mouse, plasma, iv, 5 mg/kg, mice, 5 mg kg^−1 i.v., noncompartmental
Experimental: NU7026 was formulated in 10% DMSO and 5% Tween 20 in saline for i.p. and perorally (p.o.) administration at 20 and 50 mg kg^−1, respectively. For i.v. dosing at 5 mg kg^−1, NU7026 was formulated in 10% ethanol, 25% PEG 200 and 5% Tween 20 in saline. […] Samples were analysed by liquid chromatography tandem mass spectrometry (LC/MS/MS). […] Peak area was plotted against concentration and unknown concentrations derived from the linear plot (analysed with Prism 2.01, Graphpad Software, San Diego, CA, USA). […]
recorded.metric: Cmax (µM)

molecule: O=c1cc(N2CCOCC2)oc2c1ccc1ccccc12 [NU7026, 2-(morpholin-4-yl)-benzo[H]chromen-4-one]
recorded.metric: Cmax
numeric.result: 5.12

###

Assay: Plasma pharmacokinetics in mice (LC/MS/MS)
Format: in vivo, Female BALB/c mice
Settings: female, BALB/c, mouse, ip; mice, 20 mg kg^−1 i.p., plasma; read-out: Tmax
recorded.metric: Tmax (min)

molecule: O=c1cc(N2CCOCC2)oc2c1ccc1ccccc12 [NU7026, 2-(morpholin-4-yl)-benzo[H]chromen-4-one]
recorded.metric: Tmax
numeric.result: 4.98

###

Test: Plasma pharmacokinetics in mice (LC/MS/MS)
Assay type: in vivo, Female BALB/c mice
Details: female, BALB/c, mouse, iv; mice, 5 mg kg^−1 i.v., plasma

compound: O=c1cc(N2CCOCC2)oc2c1ccc1ccccc12 [NU7026, 2-(morpholin-4-yl)-benzo[H]chromen-4-one]
half-life: 1.22 h

###

Experiment: Plasma pharmacokinetics in mice (LC/MS/MS)
Assay type: in vivo, Female BALB/c mice
Conditions: female, BALB/c, mouse, iv; mice, 5 mg kg^−1 i.v., plasma; read-out: Tmax
recorded.metric: Tmax (h)

compound: O=c1cc(N2CCOCC2)oc2c1ccc1ccccc12 [NU7026, 2-(morpholin-4-yl)-benzo[H]chromen-4-one]
unit.info: h
numeric.result: 0

###

Experiment: Plasma pharmacokinetics in mice (LC/MS/MS)
Format: in vivo, Female BALB/c mice
Conditions: female, BALB/c, mouse, plasma, ip, 20 mg/kg, Table 3: each compound at 20 mg kg^−1 i.p. to mice, plasma
Catalogue of molecules with associated Cmax

molecule: O=c1cc(N2CCOCC2)oc2c1ccc1ccccc12 [NU7026, 2-(morpholin-4-yl)-benzo[H]chromen-4-one]
unit.info: µM
Cmax: 5.12
--
molecule: C[C@@H]1CN(c2cc(=O)n3ccc4ccccc4c3n2)C[C@H](C)O1
unit.info: µM
Cmax: 10.4

###

Assay: Plasma pharmacokinetics in mice (LC/MS/MS)
Type: in vivo, Female BALB/c mice
Settings: female, BALB/c, mouse, plasma, iv, 5 mg/kg, mice, 5 mg kg^−1 intravenous (abstract); read-out: plasma clearance (converted)
recorded.metric: clearance (mL/min)

compound: O=c1cc(N2CCOCC2)oc2c1ccc1ccccc12 [NU7026, 2-(morpholin-4-yl)-benzo[H]chromen-4-one]
numeric.result: 1.8
